Tested on: Expi293 cells
Assay: CellTiter-Glo cell health (ATP levels) during cell association assay
Format: cell-based
Settings: reflective of cell health, luminescence Tfinal (22 hours) / Tinitial
Peptide text beside a SMILES is read from it. * marks the point of attachment. 5FAM = O=C1OC2(c3ccc(O)cc3Oc3cc(O)ccc32)c2ccc(C(=O)*)cc21
MEASURED_ATTRIBUTE: CellTiter-Glo fold change ± SD

compound="CC(C)C[C@H](NC(=O)[C@H](C)NC(=O)CNC(=O)[C@H](CCCCN)NC(=O)[C@H](CCCNC(=N)N)NC(=O)[C@H](C)NC(=O)[C@H](Cc1ccccc1)NC(=O)[C@H](CCCNC(=N)N)NC(=O)[C@H](CCC(N)=O)NC(=O)c1ccc2c(c1)C(=O)OC21c2ccc(O)cc2Oc2cc(O)ccc21)C(=O)N[C@@H](CCCNC(=N)N)C(=O)N[C@@H](CCC(N)=O)C(=O)N[C@@H](CCCCN)C(=O)N[C@@H](CC(N)=O)C(=O)N[C@H](C(N)=O)C(C)C [FP47831, reference compound] (5FAM-QRFARKGALRQKNV-NH2)" value_measured=1.1

* * *

Let's look at some sequences and their measured interaction data at Target Concentration 300.
Target: CHIP (Homo sapiens)
Construct: N-term truncated CHIP (also known as STUB1, Uniprot ID: Q9UNE7, residues 23-303); made in house; host or cells: E. coli BL21 CodonPlus
Sequence (Q9UNE7 23-303): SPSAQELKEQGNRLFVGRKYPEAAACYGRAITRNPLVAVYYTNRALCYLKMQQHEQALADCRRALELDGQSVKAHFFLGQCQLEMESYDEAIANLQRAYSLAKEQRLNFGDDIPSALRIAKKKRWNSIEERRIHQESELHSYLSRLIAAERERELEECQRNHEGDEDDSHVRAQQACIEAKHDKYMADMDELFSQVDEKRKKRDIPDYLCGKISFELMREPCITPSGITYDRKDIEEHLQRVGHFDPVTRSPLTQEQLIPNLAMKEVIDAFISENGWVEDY
Test: Naive Library Presenter Screening (phage, NGS), CHIP
Assay type: binding
Conditions: CHIP clusters (C83, C84); target concentration 300 nM
Numbered stars: 1 amine (or outer) side, 2 acyl side, 3 side chain; on linkers, the order of the positions; unused ones are H or OH. Bridge positions count the residues as written; N and C are the ends. Ends that are not written are not given here. Phenylene(1,4-NHCOCH2)2 = O=C(C[*:1])Nc1ccc(NC(=O)C[*:2])cc1
MEASURED_ATTRIBUTE: interaction data at Target Concentration 300

sequence_content="DPAYDVCHFAAHICWID (linker 7-14 via Phenylene(1,4-NHCOCH2)2 (inferred))" value_measured=19
sequence_content="DPAETFCWDAADICMVD (linker 7-14 via Phenylene(1,4-NHCOCH2)2 (inferred))" value_measured=17
sequence_content="DPAIIWCSQAASICTVD (linker 7-14 via Phenylene(1,4-NHCOCH2)2 (inferred))" value_measured=15
sequence_content="DPAVHNCSQAASICDVD (linker 7-14 via Phenylene(1,4-NHCOCH2)2 (inferred); not fully specified (C-terminus))" value_measured=22

* * *

Biological target: FBXW7-SKP1 (Homo sapiens)
Construct: FBXW7 (Uniprot ID: Q969H0, residues 263-706) with an N-terminal GST-TEV tag and C-terminal AVI tag; GST-TEV (N); made in house; host or cells: E. coli BL21 (DE3)
Sequence (Q969H0 263-706): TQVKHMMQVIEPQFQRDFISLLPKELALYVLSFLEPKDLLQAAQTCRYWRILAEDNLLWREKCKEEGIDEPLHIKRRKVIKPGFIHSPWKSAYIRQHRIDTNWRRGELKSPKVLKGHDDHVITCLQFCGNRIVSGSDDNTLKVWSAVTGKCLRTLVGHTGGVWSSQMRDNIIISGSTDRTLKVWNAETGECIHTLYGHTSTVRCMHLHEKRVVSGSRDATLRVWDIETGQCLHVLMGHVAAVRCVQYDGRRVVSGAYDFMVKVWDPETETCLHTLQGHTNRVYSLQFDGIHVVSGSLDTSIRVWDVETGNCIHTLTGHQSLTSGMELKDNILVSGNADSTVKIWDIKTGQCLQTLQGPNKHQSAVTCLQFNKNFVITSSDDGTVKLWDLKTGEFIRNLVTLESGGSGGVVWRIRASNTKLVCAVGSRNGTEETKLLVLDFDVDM
Sequence (P63208 whole entry partner, the tested form may be a part): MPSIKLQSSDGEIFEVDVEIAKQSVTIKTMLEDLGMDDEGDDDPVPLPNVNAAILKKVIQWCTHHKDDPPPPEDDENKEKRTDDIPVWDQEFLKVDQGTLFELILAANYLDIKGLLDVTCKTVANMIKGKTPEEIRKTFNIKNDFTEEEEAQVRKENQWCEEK
Assay: Naive Library Presenter Screening (phage, NGS), FBXW7-SKP1
Format: binding
Settings: FBXW7 target concentration 1000 nM, first column
Numbered stars: 1 amine (or outer) side, 2 acyl side, 3 side chain; on linkers, the order of the positions; unused ones are H or OH. Bridge positions count the residues as written; N and C are the ends. Ends that are not written are not given here. Phenylene(1,4-NHCOCH2)2 = O=C(C[*:1])Nc1ccc(NC(=O)C[*:2])cc1
MEASURED_ATTRIBUTE: interaction data at Target Concentration 1000

sequence_content=DPAYFSCEDAAELCEWY value_measured=13
sequence_content="DPANWVCMDAAELCDFY (DPANWVCMDAAELCDFY-NH2; linker 7-14 via Phenylene(1,4-NHCOCH2)2 (inferred))" value_measured=99
sequence_content=DPADMMCENAALLCEFW value_measured=282
sequence_content=DPANIACDDAALLCELW value_measured=8
sequence_content=DPAMTWCLNAAELCEFW value_measured=17
sequence_content=DPAIRMCRDAAELCEFW value_measured=66

* * *

Target: RNF31 PUB domain (Homo sapiens)
Construct: MBP-TEV (N, cleaved yes); made in house; host or cells: E. coli BL21 (DE3) pLysS
Sequence (Q96EP0 1-179): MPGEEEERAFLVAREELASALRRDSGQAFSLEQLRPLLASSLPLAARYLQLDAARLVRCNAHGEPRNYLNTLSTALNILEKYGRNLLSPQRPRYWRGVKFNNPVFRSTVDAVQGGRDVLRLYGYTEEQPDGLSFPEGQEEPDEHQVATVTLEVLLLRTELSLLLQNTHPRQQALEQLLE
Assay: Phage Library Screening with NGS, RNF31 PUB domain
Format: binding
Conditions: RNF31 PUB domain clusters C41-C45; target concentration 100
Reported Phage library screen NGS readout, Target Concentration 100 values follow for various sequences
MEASURED_ATTRIBUTE: Phage library screen NGS readout, Target Concentration 100

sequence_content=DPAWDYCMYAAYDCNHS value_measured=1
sequence_content=DPAFAQCEVAAMVCTTY value_measured=0
sequence_content=DPALDYCLYAAYDCMYA value_measured=0
sequence_content=DPAWWNCLYAADECWSW value_measured=0
sequence_content=DPAYEDCADAAMYCDMD value_measured=0
sequence_content=DPAYEDCAWAALYCDMT value_measured=0
sequence_content=DPAEDWCMYAAWDCQME value_measured=0
sequence_content=DPAWMDCLYAAYDCQHM value_measured=0
sequence_content=DPAIAQCMLAAQVCSTY value_measured=0
sequence_content=DPAFQFCVEAAVACSYY value_measured=0
sequence_content=DPAFWECMYAASDCDAS value_measured=1
sequence_content=DPAYWDCLYAAADCAFY value_measured=0
sequence_content=DPAYDWCMYAAYNCVED value_measured=1
sequence_content=DPAFHDCQFAAAVCSTY value_measured=0
sequence_content=DPAMEWCWDAAVFCTYS value_measured=0
sequence_content=DPAVVDCWDAAVQCTYY value_measured=0
sequence_content=DPAWWNCLYAANTCVED value_measured=0

* * *

Biological target: WWP2^HECT (Homo sapiens)
Construct: GST-TEV (N, cleaved yes); made in house; host or cells: Escherichia coli BL21 (DE3)
Sequence (O00308 492-865): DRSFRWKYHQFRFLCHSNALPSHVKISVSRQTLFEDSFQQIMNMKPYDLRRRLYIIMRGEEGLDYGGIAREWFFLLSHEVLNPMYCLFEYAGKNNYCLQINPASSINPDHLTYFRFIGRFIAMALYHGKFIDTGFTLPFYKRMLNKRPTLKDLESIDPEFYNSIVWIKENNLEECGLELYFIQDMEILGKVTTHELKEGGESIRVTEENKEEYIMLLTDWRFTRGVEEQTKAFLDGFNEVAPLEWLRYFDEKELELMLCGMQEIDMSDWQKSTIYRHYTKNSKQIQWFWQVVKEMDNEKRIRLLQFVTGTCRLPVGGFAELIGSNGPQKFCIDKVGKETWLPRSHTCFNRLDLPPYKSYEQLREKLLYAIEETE
Assay: Naive Library Presenter Screening (phage, NGS), WWP2^HECT
Format: binding
Details: WWP2 target concentration 1000 nM, second column
Numbered stars: 1 amine (or outer) side, 2 acyl side, 3 side chain; on linkers, the order of the positions; unused ones are H or OH. Bridge positions count the residues as written; N and C are the ends. Ends that are not written are not given here. Phenylene(1,4-NHCOCH2)2 = O=C(C[*:1])Nc1ccc(NC(=O)C[*:2])cc1
Each record gets a class by interaction data at Target Concentration 1000: lower bin: < 30; middle bin: ≥ 30 and < 100; upper bin: ≥ 100

sequence_content="DPATWACINAAHNCWRN (DPATWACINAAHNCWRN-NH2; linker 7-14 via Phenylene(1,4-NHCOCH2)2 (inferred))" group="lower bin"
sequence_content="DPALWHCLAAAETCAMF (linker 7-14 via Phenylene(1,4-NHCOCH2)2; not fully specified (C-terminus))" group="middle bin"
sequence_content="DPAIWDCLYAATNCYIN (linker 7-14 via Phenylene(1,4-NHCOCH2)2; not fully specified (C-terminus))" group="lower bin"
sequence_content="DPAANYCEAAADTCQFF (linker 7-14 via Phenylene(1,4-NHCOCH2)2 (inferred))" group="upper bin"
sequence_content="DPATWDCNVAAHRCWFL (linker 7-14 via Phenylene(1,4-NHCOCH2)2 (inferred); not fully specified (C-terminus))" group="middle bin"
sequence_content="DPARVNCHAAADTCFFF (linker 7-14 via Phenylene(1,4-NHCOCH2)2)" group="upper bin"
sequence_content="DPAVWDCRYAAWDCYTN (linker 7-14 via Phenylene(1,4-NHCOCH2)2 (inferred); not fully specified (C-terminus))" group="lower bin"
sequence_content="DPAIHSCYAAAETCQFF (linker 7-14 via Phenylene(1,4-NHCOCH2)2 (inferred))" group="upper bin"
sequence_content=DPAYHHCLAAADLCSFF group="upper bin"
sequence_content="DPAVWECRWAAFQCWLD (linker 7-14 via Phenylene(1,4-NHCOCH2)2 (inferred); not fully specified (C-terminus))" group="upper bin"
sequence_content="DPALLHCMAAAQTCSFF (linker 7-14 via Phenylene(1,4-NHCOCH2)2; not fully specified (C-terminus))" group="upper bin"
sequence_content="DPALWECRNAAWQCWMH (linker 7-14 via Phenylene(1,4-NHCOCH2)2; not fully specified (C-terminus))" group="lower bin"
sequence_content="DPALWECMTAADWCMFM (linker 7-14 via Phenylene(1,4-NHCOCH2)2; not fully specified (C-terminus))" group="middle bin"
sequence_content="DPALIHCRAAADTCAFW (linker 7-14 via Phenylene(1,4-NHCOCH2)2; not fully specified (C-terminus))" group="upper bin"
